molecular target: glucagon receptor (Mus musculus, UniProt Q61606); assay: Experiment for glucagon binding inhibition, mouse hepatic membrane (125I-glucagon); settings: male ddY mouse hepatic membrane, 125I-glucagon 50 pM, 25° C. for 30 minutes; read-out: Glucagon binding inhibitory activity IC50 (nM) Mouse
Sequence (Q61606 27-485): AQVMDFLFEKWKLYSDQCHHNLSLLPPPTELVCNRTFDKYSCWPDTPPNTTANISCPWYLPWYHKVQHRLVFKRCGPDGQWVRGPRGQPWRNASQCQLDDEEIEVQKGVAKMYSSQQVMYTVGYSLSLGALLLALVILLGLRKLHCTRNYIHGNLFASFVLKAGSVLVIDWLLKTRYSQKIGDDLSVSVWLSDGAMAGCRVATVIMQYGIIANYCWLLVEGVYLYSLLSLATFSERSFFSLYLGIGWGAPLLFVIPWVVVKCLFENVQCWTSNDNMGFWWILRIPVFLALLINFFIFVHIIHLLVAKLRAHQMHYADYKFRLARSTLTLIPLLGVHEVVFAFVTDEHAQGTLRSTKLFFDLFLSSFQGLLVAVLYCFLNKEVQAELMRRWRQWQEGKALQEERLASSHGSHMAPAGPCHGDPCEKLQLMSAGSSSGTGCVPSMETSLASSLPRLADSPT
Listing of recorded IC50 by entry.
measureName: IC50 (nM)

>>> df
                                    molecule  measurename  displayunit  resultvalue
 0  Cc1ccc(-c2ccoc2C(=O)NNC(=O)c2ccc(O)c([N+](=O)[O-])c2)cc1C [Example 150]         IC50           nM           73
 1  O=C(NNC(=O)c1oc(Br)cc1-c1ccccc1)c1ccc(O)c([N+](=O)[O-])c1 [Example 222]         IC50           nM           42
 2  CCOc1ccccc1Cc1cccc(-c2ccoc2C(=O)NNC(=O)c2ccc(O)c([N+](=O)[O-])c2)c1 [Example 226]         IC50           nM           31
 3  O=C(NNC(=O)c1occ(-c2ccccc2)c1-c1ccccc1)c1ccc(O)c([N+](=O)[O-])c1 [Example 19]         IC50           nM           97
 4  N#Cc1cc(C(=O)NNC(=O)c2occ(-c3cccc(OCc4ccccc4)c3)c2-c2cccc(OCc3ccccc3)c2)ccc1O [Example 115]         IC50           nM           80
 5  Cc1cc(C)c(C)c(COc2cccc(-c3ccoc3C(=O)NNC(=O)c3ccc(O)c([N+](=O)[O-])c3)c2)c1C [Example 20]         IC50           nM           24
 6  Cc1cccc(COc2cccc(-c3ccoc3C(=O)NNC(=O)c3ccc(O)c([N+](=O)[O-])c3)c2)c1 [Example 123]         IC50           nM           65
 7  N#Cc1cc(C(=O)NNC(=O)c2occ(COC(=O)Nc3ccccc3)c2-c2ccccc2)ccc1O [Example 53]         IC50           nM          240
 8  N#Cc1cc(C(=O)NNC(=O)c2occc2-c2ccc(OCc3ccccc3)cc2)ccc1O [Example 17]         IC50           nM          160
 9  N#Cc1cc(C(=O)NNC(=O)c2occc2-c2cccc(OCc3ccncc3)c2)ccc1O [Example 102]         IC50           nM           93
10  CCCOc1ccccc1-c1ccoc1C(=O)NNC(=O)c1ccc(O)c(C#N)c1 [Example 11]         IC50           nM          450
11  Cc1ccc(-c2ccoc2C(=O)NNC(=O)c2ccc(O)c(C(F)(F)F)c2)cc1 [Example 240]         IC50           nM          180
12  O=C(NNC(=O)c1occc1-c1ccc(OCc2ccccc2)cc1)c1ccc(O)c([N+](=O)[O-])c1 [Example 245]         IC50           nM           64
13  CCCCCCc1cccc(-c2ccoc2C(=O)NNC(=O)c2ccc(O)c([N+](=O)[O-])c2)c1 [Example 188]         IC50           nM           28
14  CS(=O)(=O)Nc1ccccc1COc1cccc(-c2ccoc2C(=O)NNC(=O)c2ccc(O)c([N+](=O)[O-])c2)c1 [Example 138]         IC50           nM           23
15  CC=CCOc1cccc(-c2ccoc2C(=O)NNC(=O)c2ccc(O)c([N+](=O)[O-])c2)c1 [Example 198]         IC50           nM           20
16  Cc1cc(C)c(C)c(COc2ccccc2-c2ccoc2C(=O)NNC(=O)c2ccc(O)c(C#N)c2)c1C [Example 9]         IC50           nM           75
17  Cc1cc(C)c(C)c(COc2cccc(-c3c(-c4ccccc4)coc3C(=O)NNC(=O)c3ccc(O)c(C#N)c3)c2)c1C [Example 98]         IC50           nM            4
18  Cc1cc(C)c(C)c(COc2cccc(-c3c(-c4ccccc4)coc3C(=O)NNC(=O)c3ccc(O)c([N+](=O)[O-])c3)c2)c1C [Example 100]         IC50           nM          9.1
19  CCCCCCCOc1cccc(-c2ccoc2C(=O)NNC(=O)c2ccc(O)c([N+](=O)[O-])c2)c1 [Example 185]         IC50           nM           23
20  N#Cc1cc(C(=O)NNC(=O)c2occc2-c2cccc(OCCc3ccccc3)c2)ccc1O [Example 4]         IC50           nM          130
21  N#Cc1cc(C(=O)NNC(=O)c2occc2-c2cccc(Oc3ccccc3)c2)ccc1O [Example 2]         IC50           nM          140
22  CCCCOc1cccc(-c2ccoc2C(=O)NNC(=O)c2ccc(O)c([N+](=O)[O-])c2)c1 [Example 181]         IC50           nM           62
